Organism: Homo sapiens
Assay: To identify inhibition of the IFN signalling (Jak-Stat) pathway via expression of an eGFP reporter gene under the control of an IFN-stimulated response element (ISRE) containing MxA promoter.
Format: functional
Set-up: scale not given: direction of the effect not stated beside the values
Settings: 30 µM
Recorded Percent Effect for the following molecules
Your answer should be a plain number; it is taken to be in %.

Record excerpt, results attached:
{"columns": ["MOLECULE", "Percent Effect / %"],
 "data": [
  ["O=C(Nc1cnccn1)[C@H]1COC[C@H]2CN(C3CCCC3)C[C@H]21", -10.3],
  ["O=S(=O)(Nc1cnn(C2CCOCC2)c1)c1c(F)cccc1F", 5.2],
  ["Cc1ccc(CN2CC[C@H]3OCC[C@@H](C(=O)NC4CC4)[C@@H]3C2)o1", 11.3]
]}

Would you kindly share the measured Percent Effect for CC(C(=O)N1CCN(c2ccccc2Cl)CC1)n1cncn1 (configuration not stated) ?
5.34

Try CN(Cc1cn2c(n1)CN(CC1CC1)CC2)Cc1ccco1 next.
8.85

Try CC(NC(=O)Nc1cc(F)ccc1N1CCCCC1)c1nncn1C (configuration not stated) next.
1.69

Try Cc1cc(C)n(CC(=O)NC(Cc2ccsc2)c2ccccn2)c(=O)n1 (configuration not stated) next.
-8.13

Try COc1ccc(CNC(C)c2cccc(Cl)c2)c(OC)c1OC (configuration not stated) next.
16.5

Try CCOC(=O)C1CCN(Cc2csc(C(C)(C)C)n2)CC1 next.
4.26

---

Recorded Percent Effect for the following compounds
Species: Homo sapiens
Experiment: To identify inhibition of the IFN signalling (Jak-Stat) pathway via expression of an eGFP reporter gene under the control of an IFN-stimulated response element (ISRE) containing MxA promoter.
Format: functional
Parameters: scale not given: direction of the effect not stated beside the values
Conditions: 30 µM
Don't forget the unit after the number, please.

Record excerpt, results attached:
{"columns": ["COMPOUND", "QUANTITY", "REPORTED RESULT"],
 "data": [
  ["CC(NC(=O)NCCCO)c1ccc2c(c1)OCCO2 (centres undefined)", "Percent Effect", "2.1%"],
  ["Cn1cc(CN(Cc2ccccc2)CC(O)c2cccs2)cn1 (centres undefined)", "Percent Effect", "1.28%"],
  ["Cc1ccc(C(=O)CCC(=O)N2CCC(c3nncn3C)CC2)cc1", "Percent Effect", "9.84%"],
  ["Cc1ccc2ncnc(N3CCOCC3c3c(C)nn(C)c3C)c2c1 (centres undefined)", "Percent Effect", "21.1%"],
  ["O=C(c1cc(F)ccc1F)C1CCN(C(=O)c2cccnc2O)CC1", "Percent Effect", "-28.1%"],
  ["O=C(N1CCOCC1)[C@@]12CCO[C@@H]1CCN(CCN1CCCCC1)C2", "Percent Effect", "-2.62%"],
  ["CC(c1ccc(F)c(F)c1)N1CCN(Cc2nccn2C)CC1 (centres undefined)", "Percent Effect", "40.9%"],
  ["Cc1ncsc1-c1nnc(C2CCN(Cc3ccc(F)cc3)CC2)o1", "Percent Effect", "-6.87%"]
]}

Would you kindly share the measured Percent Effect for CCOc1ccccc1C(CC(=O)Nc1ccccc1F)NC(C)=O (centres undefined) ?
-32.5%

Try Cc1nc(CN2CCc3nn(C(C)C)c(=O)cc3C2)oc1C next.
-4.72%

Try CNC(=O)CC1CC2(CCN(Cc3nccs3)CC2)c2ccccc21 (centres undefined) next.
-4.56%

Try CCC(C)c1noc(C2CCN(C(=O)c3cccs3)CC2)n1 (centres undefined) next.
23.9%
